Tested on: green foxtail (Setaria viridis)
test-details: Test A postemergence application, visual injury rating 0-100
Format: in vivo
condition: Postemergence, 125 g ai/ha, 10 days; 0 is no effect, 100 is complete control
measured-quantity: Foxtail, Green plant response rating (0 to 100 scale)
API note: the answer field is a bare number with no unit suffix.

Lookup: Look up and report measured Foxtail, Green plant response rating (0 to 100 scale) for this entry: CC(C)OC(=O)C1CCC(NC(=O)C2(C)CN(c3cc(F)cc(Cl)c3)C(=O)O2)C1 (stereo not shown) [Compound 2]
Found: 90

Lookup: Look up and report measured Foxtail, Green plant response rating (0 to 100 scale) for this entry: CC1(C(=O)NC2C=CC(C(=O)OCC#N)C2)CN(c2cc(F)cc(F)c2)C(=O)O1 (stereo not shown) [Compound 35]
Found: 90

Lookup: Look up and report measured Foxtail, Green plant response rating (0 to 100 scale) for this entry: COCCOC(=O)C1C=CC(NC(=O)C2(C)CN(c3cc(F)cc(F)c3)C(=O)O2)C1 (stereo not shown) [Compound 36]
Found: 80

Lookup: Look up and report measured Foxtail, Green plant response rating (0 to 100 scale) for this entry: COC(=O)C1CCC(NC(=O)C2(C)CN(c3cc(F)cc(F)c3)C(=O)O2)C1 (stereo not shown) [Compounds 10]
Found: 90

Lookup: Look up and report measured Foxtail, Green plant response rating (0 to 100 scale) for this entry: CC1(C(=O)NC2C=CC(C(=O)O)C2)CN(c2cc(Cl)cc(Cl)c2)C(=O)O1 (stereo not shown) [Compound 62]
Found: 90

Lookup: Look up and report measured Foxtail, Green plant response rating (0 to 100 scale) for this entry: CSCCOC(=O)C1C=CC(NC(=O)C2(C)CN(c3cc(Cl)cc(Cl)c3)C(=O)O2)C1 (stereo not shown) [Compound 45]
Found: 80

Lookup: Look up and report measured Foxtail, Green plant response rating (0 to 100 scale) for this entry: CC1(C(=O)NC2CCC(C(=O)O)C2)CN(c2cc(F)cc(Cl)c2)C(=O)O1 (stereo not shown) [Compound 7]
Found: 90

Lookup: Look up and report measured Foxtail, Green plant response rating (0 to 100 scale) for this entry: CC(C)OC(=O)C1CC(NC(=O)C2(C)CN(c3cc(F)cc(F)c3)C(=O)O2)CO1 (stereo not shown) [Compound 32]
Found: 40

Lookup: Look up and report measured Foxtail, Green plant response rating (0 to 100 scale) for this entry: CCOC(=O)C1CCC(NC(=O)C2(C)CN(c3cc(F)cc(Cl)c3)C(=O)O2)C1 (stereo not shown) [Compound 19]
Found: 90

Lookup: Look up and report measured Foxtail, Green plant response rating (0 to 100 scale) for this entry: CC(C)COC(=O)C1C=CC(NC(=O)C2(C)CN(c3cc(Cl)cc(Cl)c3)C(=O)O2)C1 (stereo not shown) [Compound 66]
Found: 90

Lookup: Look up and report measured Foxtail, Green plant response rating (0 to 100 scale) for this entry: CCOC(=O)COC(=O)C1C=CC(NC(=O)C2(C)CN(c3cc(F)cc(F)c3)C(=O)O2)C1 (stereo not shown) [Compound 53]
Found: 70

Lookup: Look up and report measured Foxtail, Green plant response rating (0 to 100 scale) for this entry: CNC(=O)C1CCC(NC(=O)C2(C)CN(c3cc(F)cc(F)c3)C(=O)O2)C1 (stereo not shown) [Compound 14]
Found: 0

Lookup: Look up and report measured Foxtail, Green plant response rating (0 to 100 scale) for this entry: CONC(=O)C1CC(NC(=O)C2(C)CN(c3cc(F)cc(F)c3)C(=O)O2)CO1 (stereo not shown) [Compound 40]
Found: 90

Lookup: Look up and report measured Foxtail, Green plant response rating (0 to 100 scale) for this entry: CCOC(=O)C1C=CC(NC(=O)C2(C)CN(c3cc(Cl)cc(Cl)c3)C(=O)O2)C1 (stereo not shown) [Compound 44]
Found: 90

Lookup: Look up and report measured Foxtail, Green plant response rating (0 to 100 scale) for this entry: CC1(C(=O)NC2C=CC(C(=O)O)C2)CN(c2cc(F)cc(Cl)c2)C(=O)O1 (stereo not shown) [Compound 6]
Found: 90

Lookup: Look up and report measured Foxtail, Green plant response rating (0 to 100 scale) for this entry: COC(=O)[C@H]1C[C@@H](NC(=O)C2(C)CN(c3cc(F)cc(F)c3)C(=O)O2)[C@H]2C[C@H]21 (stereo partly shown) [Compound 176]
Found: 90
